Data origin, for the record: PubChem BioAssay AID248

# System: L1210 leukemia ip in BDF1 mice, survival T/C
# assay_notes: NCI In Vivo Anticancer Drug Screen. Data for tumor model L1210 Leukemia (intraperitoneal) in B6D2F1 (BDF1) mice
# cond: endpoint: mean survival time; dose: 400.0 mg/kg/injection; schedule: Q01DX001 (ip); vehicle: carboxymethylcellulose (CMC); higher = longer survival
Inconclusive results and toxic doses are left out.
I'd be grateful if you could share measured T/C for these entries.

# compound `O=c1[nH]nc(-c2ccc3c(c2)Cc2ccccc2-3)c2ccccc12` ; its T/C = 97 % of control

# compound NC(CCC1SCCS1)C(=O)O (stereo unspecified) ; its T/C = 98 % of control

# compound `O=C(Nc1cccc([N+](=O)[O-])c1)N1CCCC1` ; its T/C = 100 % of control

# compound `CCOC(=O)OCc1ccco1` ; its T/C = 110 % of control

# compound `Cc1ccnc(NS(=O)(=O)c2ccc(N=Nc3c(N)nc(N)[nH]c3=O)cc2)n1` ; its T/C = 103 % of control

# compound `Oc1ccc(Cl)cc1C1N(Cc2ccc(N(CCCl)CCCl)cc2Cl)CCCN1Cc1ccc(N(CCCl)CCCl)cc1Cl` ; its T/C = 96 % of control

# compound `Cn1c2c(c(=O)[nH]c1=O)OCN(Cc1ccccc1)C2` ; its T/C = 100 % of control

# compound `CC(=O)c1cccc(OC(=O)Oc2cccc(C(C)=O)c2)c1` ; its T/C = 95 % of control

# compound `C/C(=C/C(=O)O)C(=O)Nc1cccc2c(NC(=O)/C(C)=C/C(=O)O)cccc12` ; its T/C = 96 % of control

# compound `CC(=O)Nc1ccc2c(c1)Cc1cc(N=Cc3ccc4c(c3)OCO4)ccc1-2` ; its T/C = 93 % of control

# compound `Cc1ccc(CSc2ccc([N+](=O)[O-])cc2[N+](=O)[O-])cc1` ; its T/C = 92 % of control

###

# Test system: L1210 leukemia ip in BDF1 mice, survival T/C
# assay_notes: NCI In Vivo Anticancer Drug Screen. Data for tumor model L1210 Leukemia (intraperitoneal) in B6D2F1 (BDF1) mice
# cond: endpoint: mean survival time; dose: 200.0 mg/kg/injection; schedule: Q01DX009 (ip); vehicle: saline with Tween-80; higher = longer survival
Toxic doses and inconclusive results are not listed.
measured_metric: T/C

# compound `O=S(=O)(Nc1c(O)ccc2ccccc12)c1ccccc1` ; its T/C = 93 % of control

# compound `CCNC(=O)Nc1ccc(N(CC)CC)cc1` ; its T/C = 87 % of control

# compound `Nc1[nH]nc2nc(-c3ccc(Cl)cc3)cnc12` ; its T/C = 98 % of control

# compound `O=C(O)CSCCCc1ccccc1` ; its T/C = 101 % of control

# compound `OCC[CH2][Sn]([c]1ccccc1)([c]1ccccc1)[c]1ccccc1` ; its T/C = 96 % of control

# compound `O=C(N/N=C/c1ccccn1)c1ccc(Cl)cc1` ; its T/C = 107 % of control

# compound `O=C(Nc1cccc([N+](=O)[O-])c1)c1ccc2c(c1)C(=O)OC2=O` ; its T/C = 87 % of control

# compound `c1ccc(Sc2ccc3ccccc3c2)cc1` ; its T/C = 97 % of control

# compound `CCCCOC(=O)c1ccc(NC(=O)NCCC)cc1` ; its T/C = 88 % of control

# compound CC(C)(C1c2ccccc2C(=NO)c2ccccc21)[N+](=O)[O-] (stereo not given) ; its T/C = 94 % of control
